Biological target: Gonadotropin-releasing hormone receptor (Homo sapiens, UniProt P30968)
Sequence (P30968 whole entry): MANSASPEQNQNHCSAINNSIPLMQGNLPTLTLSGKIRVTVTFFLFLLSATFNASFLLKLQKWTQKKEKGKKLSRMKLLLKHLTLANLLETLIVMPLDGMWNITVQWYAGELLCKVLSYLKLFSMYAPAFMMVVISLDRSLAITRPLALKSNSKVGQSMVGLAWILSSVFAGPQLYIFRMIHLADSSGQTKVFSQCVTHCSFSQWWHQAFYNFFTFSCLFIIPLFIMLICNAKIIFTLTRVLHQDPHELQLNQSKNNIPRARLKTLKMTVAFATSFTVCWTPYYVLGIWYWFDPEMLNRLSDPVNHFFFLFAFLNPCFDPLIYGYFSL
Experiment: In vitro inhibition of human gonadotropin-releasing hormone expressed in HEK293 cells
Type: cell-based
measured_metric: pIC50
The scale used: pIC50 is minus the common logarithm of the concentration in molar units.

Summary: CC(C)C[C@H](NC(=O)[C@@H](Cc1ccc(NC(N)=O)cc1)NC(=O)[C@H](Cc1ccc(NC(=O)C(N)CN)cc1)NC(=O)[C@H](CO)NC(=O)[C@@H](Cc1cccnc1)NC(=O)[C@@H](Cc1ccc(Cl)cc1)NC(=O)[C@H](N)Cc1ccc2ccccc2c1)C(=O)N[C@@H](CCCCNC(C)C)C(=O)N1CCC[C@H]1C(=O)N[C@H](C)C(=O)O (stereo partly drawn) , Gonadotropin-releasing hormone receptor (Homo sapiens, UniProt P30968), pIC50 = 8.55

Record CC(=O)N[C@H](Cc1ccc2ccccc2c1)C(=O)N[C@H](Cc1ccc(Cl)cc1)C(=O)N[C@H](Cc1cccnc1)C(=O)N[C@@H](CO)C(=O)N[C@@H](Cc1ccc(NCC(=O)n2cc(C)c(=O)[nH]c2=O)cc1)C(=O)N[C@H](Cc1ccc(NC(N)=O)cc1)C(=O)N[C@@H](CC(C)C)C(=O)N[C@@H](CCCCNC(C)C)C(=O)N1CCC[C@H]1C(=O)N[C@H](C)C(N)=O ; system Gonadotropin-releasing hormone receptor (Homo sapiens, UniProt P30968); pIC50 = 8.61

Bench note, Gonadotropin-releasing hormone receptor (Homo sapiens, UniProt P30968): CC(=O)N[C@H](Cc1ccc2ccccc2c1)C(=O)N[C@H](Cc1ccc(Cl)cc1)C(=O)N[C@H](Cc1cccnc1)C(=O)N[C@@H](CO)C(=O)N[C@@H](Cc1ccc(NC(=O)NC(=O)[C@H](N)CC(N)=O)cc1)C(=O)N[C@H](Cc1ccc(NC(N)=O)cc1)C(=O)N[C@@H](CC(C)C)C(=O)N[C@@H](CCCCNC(C)C)C(=O)N1CCC[C@H]1C(=O)N[C@H](C)C(=O)O , pIC50 reads 8.65

====

Target: Gonadotropin-releasing hormone receptor (Homo sapiens)
Assay: In vitro inhibition of human gonadotropin-releasing hormone expressed in HEK293 cells
Format: cell-based
// returns not satisfied unless IC50 is strictly below 2 nM, in which case satisfied

# input IC50 under 2 nM? Item: CC(=O)N[C@H](Cc1ccc2ccccc2c1)C(=O)N[C@H](Cc1ccc(Cl)cc1)C(=O)N[C@H](Cc1cccnc1)C(=O)N[C@@H](CO)C(=O)N[C@@H](Cc1ccc(NC(=O)C(N)CCN)cc1)C(=O)N[C@H](Cc1ccc(NC(N)=O)cc1)C(=O)N[C@@H](CC(C)C)C(=O)N[C@@H](CCCCNC(C)C)C(=O)N1CCC[C@H]1C(=O)N[C@H](C)C(=O)O (stereo partly specified)
# output not satisfied

# input Is IC50 strictly under 2 nM for the entry CC(=O)N[C@H](Cc1ccc2ccccc2c1)C(=O)N[C@H](Cc1ccc(Cl)cc1)C(=O)N[C@H](Cc1cccnc1)C(=O)N[C@@H](CO)C(=O)N[C@@H](Cc1ccc(NC(=O)[C@@H]2CCC(=O)N2)cc1)C(=O)N[C@H](Cc1ccc(NC(N)=O)cc1)C(=O)N[C@@H](CC(C)C)C(=O)N[C@@H](CCCCNC(C)C)C(=O)N1CCC[C@H]1C(=O)N[C@H](C)C(=O)O ?
# output satisfied

# input Hello, is IC50 of the following compound strictly smaller than 2 nM? CC(=O)N[C@H](Cc1ccc2ccccc2c1)C(=O)N[C@H](Cc1ccc(Cl)cc1)C(=O)N[C@H](Cc1cccnc1)C(=O)N[C@@H](CO)C(=O)N[C@@H](Cc1ccc(NC(=O)C2CCNC(=O)N2)cc1)C(=O)N[C@H](Cc1ccc(NC(N)=O)cc1)C(=O)N[C@@H](CC(C)C)C(=O)N[C@@H](CCCCNC(C)C)C(=O)N1CCC[C@H]1C(=O)N[C@H](C)C(N)=O (stereo partly specified)
# output satisfied

# input Dear colleague, could you confirm whether IC50 of CC(=O)N[C@H](Cc1ccc2ccccc2c1)C(=O)N[C@H](Cc1ccc(Cl)cc1)C(=O)N[C@H](Cc1cccnc1)C(=O)N[C@@H](CO)C(=O)N[C@@H](Cc1ccc(NC(=O)C(N)CN)cc1)C(=O)N[C@H](Cc1ccc(NC(N)=O)cc1)C(=O)N[C@@H](CC(C)C)C(=O)N[C@@H](CCCCNC(C)C)C(=O)N1CCC[C@H]1C(=O)N[C@H](C)C(=O)O (stereo partly specified) falls below 2 nM? Thanks.
# output not satisfied

# input Say whether its IC50 is strictly beneath 2 nM. Entry: CC(=O)N[C@H](Cc1ccc2ccccc2c1)C(=O)N[C@H](Cc1ccc(Cl)cc1)C(=O)N[C@H](Cc1cccnc1)C(=O)N[C@@H](CO)C(=O)N[C@@H](Cc1ccc(NC(=O)NC(=O)[C@@H](N)CC(N)=O)cc1)C(=O)N[C@H](Cc1ccc(NC(N)=O)cc1)C(=O)N[C@@H](CC(C)C)C(=O)N[C@@H](CCCCNC(C)C)C(=O)N1CCC[C@H]1C(=O)N[C@H](C)C(=O)O
# output not satisfied

# input Item CC(=O)N[C@H](Cc1ccc2ccccc2c1)C(=O)N[C@H](Cc1ccc(Cl)cc1)C(=O)N[C@H](Cc1cccnc1)C(=O)N[C@@H](CO)C(=O)N[C@@H](Cc1ccc(NC(=O)NC(=O)[C@H](N)CCC(N)=O)cc1)C(=O)N[C@H](Cc1ccc(NC(N)=O)cc1)C(=O)N[C@@H](CC(C)C)C(=O)N[C@@H](CCCCNC(C)C)C(=O)N1CCC[C@H]1C(=O)N[C@H](C)C(=O)O : IC50 beneath 2 nM, strictly?
# output not satisfied
